The reported measurements were obtained from the array DNA melting data of Ke et al..

Experiment: melting temperature; melt of duplexes
Settings: sodium 0.0675 M; strand 1 µM
So basically, if Tm comes in under 50 °C it's met, and if it's 50 °C or more it's not met.

substance	label_class
CGACGTGCTCCATGTGCTG+CAGCACATGGGGCACGTCG ((((((((.((((((((((+)))))))))).))))))))	not met
CGACGTGCCATATGTGCTG+CAGCACATAAGGCACGTCG (((((((((.(((((((((+))))))))).)))))))))	not met
CGACGTGCAATATGTGCTG+CAGCACATATTGCACGTCG (((((((((((((((((((+)))))))))))))))))))	not met
CGACGTGCATCATGTGCTG+CAGCACATCTCGCACGTCG ((((((((...((((((((+))))))))...))))))))	met
CGACGTGCGCCATGTGCTG+CAGCACATGATGCACGTCG ((((((((..(((((((((+)))))))))..))))))))	not met
CGACGTGCACCATGTGCTG+CAGCACATAAAGCACGTCG ((((((((...((((((((+))))))))...))))))))	met
CGACGTGCTATATGTGCTG+CAGCACATTTAGCACGTCG ((((((((((.((((((((+)))))))).))))))))))	not met
CGACGTGCGTAATGTGCTG+CAGCACATTCCGCACGTCG (((((((((.(((((((((+))))))))).)))))))))	not met
CGACGTGCGTGATGTGCTG+CAGCACATATCGCACGTCG (((((((((..((((((((+))))))))..)))))))))	not met
CGACGTGCCAGATGTGCTG+CAGCACATCAGGCACGTCG (((((((((.(((((((((+))))))))).)))))))))	not met
CGACGTGCCTCATGTGCTG+CAGCACATTCAGCACGTCG ((((((((...((((((((+))))))))...))))))))	met
CGACGTGCTGTATGTGCTG+CAGCACATGACGCACGTCG ((((((((...((((((((+))))))))...))))))))	met
CGACGTGCCGGATGTGCTG+CAGCACATTGTGCACGTCG ((((((((...((((((((+))))))))...))))))))	met
CGACGTGCTCCATGTGCTG+CAGCACATGGTGCACGTCG ((((((((.((((((((((+)))))))))).))))))))	not met
CGACGTGCTCCATGTGCTG+CAGCACATAGGGCACGTCG ((((((((.(.((((((((+)))))))).).))))))))	not met
CGACGTGCTCTATGTGCTG+CAGCACATGCCGCACGTCG ((((((((...((((((((+))))))))...))))))))	met

---

Assay: melting temperature; melt of duplexes
Details: sodium 0.0675 M; strand 1 µM
Decision: Tm compared against 50 °C; not below it gives Yes, below it gives No.

substance	label_class
CGACGTGCAATATGTGCTG+CAGCACATCCAGCACGTCG ((((((((...((((((((+))))))))...))))))))	No
CGACGTGCGTAATGTGCTG+CAGCACATTACGCACGTCG (((((((((((((((((((+)))))))))))))))))))	Yes
CGACGTGCCCCATGTGCTG+CAGCACATAAGGCACGTCG (((((((((..((((((((+))))))))..)))))))))	Yes
CGACGTGCGCCATGTGCTG+CAGCACATTGAGCACGTCG ((((((((.(.((((((((+)))))))).).))))))))	Yes
CGACGTGCAGCATGTGCTG+CAGCACATCGCGCACGTCG ((((((((...((((((((+))))))))...))))))))	Yes
CGACGTGCCCTATGTGCTG+CAGCACATATGGCACGTCG (((((((((.(((((((((+))))))))).)))))))))	Yes
